- Tested on: Lucilia cuprina 1st instar larvae
- assay details: whole plant or invertebrate
- Type: in vivo
- condition parameters: Lucilia cuprina, 48 h, read-out: activity (percentage of larval mortality)
readout: mortality at 100 ppm (%)
Express your answer in %, writing the number without its unit.

Worked cases, answers included:
>>> observed_measurement("O=C(Nc1c(Br)cc(C(F)(C(F)(F)F)C(F)(F)F)cc1Br)c1ccc(-n2cncn2)cc1 [Compound 1-78]")
100
>>> observed_measurement("CCc1cc(C(F)(C(F)(F)F)C(F)(F)F)cc(C)c1NC(=O)c1ccc(C#N)c(C)c1 [Compound I-5]")
100

Let us move to another entry and its mortality at 100 ppm.
What does the record list as mortality at 100 ppm for CCc1cc(C(F)(C(F)(F)F)C(F)(F)F)cc(C)c1NC(=O)c1ccc(-n2cncn2)c([N+](=O)[O-])c1 [Compound 1-39] ?
100
